Reference source for all entries: the FLAb antibody collection (doi:10.7554/elife.23156)

B1: scFv; the commonest letter at each place (parent)
chain 1: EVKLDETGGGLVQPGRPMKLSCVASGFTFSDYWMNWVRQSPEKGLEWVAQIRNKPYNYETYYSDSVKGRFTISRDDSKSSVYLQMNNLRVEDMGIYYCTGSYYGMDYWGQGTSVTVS
chain 2: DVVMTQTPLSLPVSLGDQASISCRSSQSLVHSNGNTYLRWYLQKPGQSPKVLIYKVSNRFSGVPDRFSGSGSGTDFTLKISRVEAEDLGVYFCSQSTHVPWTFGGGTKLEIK

- Variants of: B1
- Test method notes: yeast surface expression (ratio to wild type); higher = more expressed
- Condition label: format: scFv 4-4-20, heavy + light
The entries below come with measured yeast surface expression values attached.
Readout type: yeast surface expression

> print(dat)
                  mutation.id  measured.value
 1        chain 1 S101C G109A           0.363
 2          chain 1 D31S W36S            2.03
 3          chain 1 F29Y V37I             0.9
 4        chain 1 G104I G109K           0.246
 5          chain 1 T28V Y32R           0.717
 6        chain 1 G100V G109Y           0.271
 7              chain 1 Y103K            1.04
 8        chain 1 S101A Y102P           0.793
 9        chain 1 S101L G109I           0.297
10          chain 1 W33M W36P           0.591
11          chain 1 Y32T W36R           0.193
12          chain 1 W33I M34F               1
13          chain 1 M34H V37P             0.3
14          chain 1 S30M V37M           0.887
15          chain 1 M34L N35I           0.531
16        chain 1 Y107G W108A           0.528
17          chain 1 F29Y V37P            2.26
18          chain 1 S30Y W33L           0.755
19          chain 1 Y32L W36Q           0.875
20          chain 1 T28Q N35P           0.622
21          chain 1 T28Y W36M           0.486
22  chain 1 G100E Y102S W108I           0.245
23          chain 1 M34C N35I           0.462
24     chain 1 F29Q S30D Y32A           0.934
25        chain 1 G100R D106V           0.108
26        chain 1 G104E Y107A           0.736
27        chain 1 D106A G109H           0.448
28          chain 1 T28V S30D           0.917
29        chain 1 Y107N G109P            0.28
30          chain 1 W33I N35W           0.803
31        chain 1 Y103L D106P           0.559
32        chain 1 M105I Y107W           0.669
33        chain 1 Y103W W108S           0.526
34        chain 1 M105T Y107D           0.467
35               chain 1 T28R           0.917
36  chain 1 G104T Y107I W108Y           0.224
37        chain 1 G100D G109I           0.553
38          chain 1 T28D V37Q           0.726
39              chain 1 W108R           0.455
40               chain 1 N35Y           0.697
41          chain 1 D31E M34P           0.406
42          chain 1 W36M V37S           0.415
43     chain 1 S30H D31S N35P           0.391
44          chain 1 T28S W33S           0.919
45          chain 1 F29R Y32Q           0.633
46               chain 1 T28P           0.989
